Numbers sourced from paper PMC10742785.

subject.of.test: α-amylase (hog pancreas) (Sus scrofa, UniProt P00690)
Construct: gene AMY2
Sequence (P00690 16-511): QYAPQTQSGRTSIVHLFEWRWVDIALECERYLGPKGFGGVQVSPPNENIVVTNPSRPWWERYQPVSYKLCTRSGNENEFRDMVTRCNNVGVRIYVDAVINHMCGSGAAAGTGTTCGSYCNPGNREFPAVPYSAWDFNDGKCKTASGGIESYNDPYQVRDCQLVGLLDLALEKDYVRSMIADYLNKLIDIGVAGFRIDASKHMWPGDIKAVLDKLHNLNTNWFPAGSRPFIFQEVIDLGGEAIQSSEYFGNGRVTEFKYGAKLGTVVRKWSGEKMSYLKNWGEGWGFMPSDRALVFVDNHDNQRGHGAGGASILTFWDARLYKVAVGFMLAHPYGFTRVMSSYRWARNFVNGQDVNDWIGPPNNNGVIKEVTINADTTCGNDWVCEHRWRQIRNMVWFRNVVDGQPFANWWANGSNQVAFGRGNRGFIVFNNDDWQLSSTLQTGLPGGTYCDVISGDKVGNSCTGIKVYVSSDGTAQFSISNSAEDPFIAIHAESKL
method.summary: DNS starch hydrolysis assay with hog pancreas α-amylase; Lineweaver–Burk, Dixon and Eisenthal–Cornish-Bowden kinetics
Assay type: biochemical
metric.name: pIC50
As a rule, pIC50 stands for the negative log10 of the concentration, concentration in M.

Query :: API: value(readout= pIC50, system= α-amylase (hog pancreas) (Sus scrofa, UniProt P00690), query= O=C(/C=C/c1ccc(O)cc1)O[C@@H]1CC(O)(C(=O)O)C[C@@H](O)C1O (stereo partly shown) [5-CQA, 5-O-p-coumaroylquinic acid] )
Result :: 4.16
